Origin of measurements: the NIST ThermoML archive (doi:10.1021/je900757k)

- ASSAY OVERVIEW: isobaric coefficient of expansion
- DETAILS: 338.15 K; 55000 kPa; Liquid; DSC
This listing pairs compounds with measured isobaric coefficient of expansion.

Solved cases (5 shown):
| RECORD SMILES | QUANTITY KIND | RECORDED MEASUREMENT |
| --- | --- | --- |
| CCCCCCCCCCCCCCC | isobaric coefficient of expansion | 0.000697 1/K |
| CCCCCCCCCC | isobaric coefficient of expansion | 0.000779 1/K |
| CCCCCCCCCCCC | isobaric coefficient of expansion | 0.00074 1/K |
| CCCCCCCCC | isobaric coefficient of expansion | 0.000807 1/K |
| CCCCCCCCCCCCC | isobaric coefficient of expansion | 0.000714 1/K |

Give isobaric coefficient of expansion for the following compound: CCCCCCCCCCCCCC
0.000705 1/K

Determine from records and report isobaric coefficient of expansion for ClC(Cl)(Cl)Cl
0.000945 1/K

Supply reported isobaric coefficient of expansion belonging to this compound: CCCCCCCCCCC
0.000754 1/K

For the compound c1ccccc1 , give its reported isobaric coefficient of expansion.
0.000945 1/K

---

Here the recorded isobaric coefficient of expansion is given for each entry.
- ASSAY OVERVIEW: isobaric coefficient of expansion
- DETAILS: 338.15 K; 35000 kPa; Liquid; DSC

Answer with reported isobaric coefficient of expansion of CCCCCCCCCCCCCCC [pentadecane]
0.00076 1/K

Tell me isobaric coefficient of expansion reported for CCCCCCCCCCCCCC [tetradecane]
0.000768 1/K

# return recorded isobaric coefficient of expansion for entry ClC(Cl)(Cl)Cl [tetrachloromethane]
0.00105 1/K

Determine from records and report isobaric coefficient of expansion for CCCCCCCCCCCC [dodecane]
0.000815 1/K

Specify reported isobaric coefficient of expansion for the compound shown: c1ccccc1 [benzene]
0.00104 1/K

# return recorded isobaric coefficient of expansion for entry CCCCCCCCCCC [undecane]
0.000834 1/K

Consider the compound CCCCCCCCC [nonane] and give its recorded isobaric coefficient of expansion.
0.000899 1/K

Fill in reported isobaric coefficient of expansion for this entry: CCCCCCCCCCCCC [tridecane]
0.000783 1/K

Annotate the compound CCCCCCCCCC [decane] with its measured isobaric coefficient of expansion.
0.000862 1/K

---

- ASSAY OVERVIEW: isobaric coefficient of expansion
- DETAILS: 318.15 K; 20000 kPa; Liquid; DSC
Listing of recorded isobaric coefficient of expansion by entry.

Consider the reported isobaric coefficient of expansion for these compounds:
| COMPOUND | isobaric coefficient of expansion |
| --- | --- |
| CCCCCCCCC [nonane] | 0.00097 1/K |
| CCCCCCCCCCC [undecane] | 0.000901 1/K |
| CCCCCCCCCCCCCC [tetradecane] | 0.000837 1/K |
| CCCCCCCCCCCC [dodecane] | 0.000876 1/K |
| CCCCCCCCCCCCCCC [pentadecane] | 0.000824 1/K |
| CCCCCCCCCC [decane] | 0.000935 1/K |
| c1ccccc1 [benzene] | 0.00113 1/K |
| ClC(Cl)(Cl)Cl [tetrachloromethane] | 0.00113 1/K |

Attention now turns to another entry.
Assign isobaric coefficient of expansion to the following record: CCCCCCCCCCCCC [tridecane]
0.000838 1/K
